Attribute: growth at 10 µM
Test system: NCI-H522
assay-overview: Growth inhibition of human NCI-H522 cells assessed as cell growth at 10 uM by sulforhodamine B assay
Format: functional
run-parameters: read-out: Activity
Number first, unit second: that is the form wanted.

- C/C=C(/C)C(=O)O[C@@H]1CC(C)(C)C[C@H]2C3=CC[C@@H]4[C@@]5(C)CC[C@H](O)C(C)(C)[C@@H]5CC[C@@]4(C)[C@]3(C)CC[C@@]12C(=O)O [Reduced Lantadene A]: 49.7%
- C/C=C(/C)C(=O)O[C@@H]1CC(C)(C)C[C@H]2C3=CC[C@@H]4[C@@]5(C)CCC(=O)C(C)(C)[C@@H]5CC[C@@]4(C)[C@]3(C)CC[C@@]12C(=O)O [LANTADENE A]: 66.1%
- CC(C)=CC(=O)O[C@@H]1CC(C)(C)C[C@H]2C3=CC[C@@H]4[C@@]5(C)CC[C@H](O)C(C)(C)[C@@H]5CC[C@@]4(C)[C@]3(C)CC[C@@]12C(=O)O [Reduced Lantadene B]: 67.7%
- CC(C)=CC(=O)O[C@@H]1CC(C)(C)C[C@H]2C3=CC[C@@H]4[C@@]5(C)CCC(=O)C(C)(C)[C@@H]5CC[C@@]4(C)[C@]3(C)CC[C@@]12C(=O)O: 57.3%
- CC1(C)C[C@@H](O)[C@]2(C(=O)O)CC[C@]3(C)C(=CC[C@@H]4[C@@]5(C)CCC(=O)C(C)(C)[C@@H]5CC[C@]43C)[C@@H]2C1: 80.9%
- COc1cc(/C=C2\C[C@]3(C)[C@H]4CC=C5[C@@H]6CC(C)(C)C[C@@H](O)[C@]6(C(=O)O)CC[C@@]5(C)[C@]4(C)CC[C@H]3C(C)(C)C2=O)ccc1O: 80.8%

Quick note, growth at 10 µM for CC1(C)C[C@@H](O)[C@]2(C(=O)O)CC[C@]3(C)C(=CC[C@@H]4[C@@]5(C)CC[C@H](O)C(C)(C)[C@@H]5CC[C@]43C)[C@@H]2C1 landed at 95.3%

Quick note, growth at 10 µM for CC1(C)C[C@@H](O)[C@]2(C(=O)O)CC[C@]3(C)C(=CC[C@@H]4[C@@]5(C)C/C(=C\C=C\c6ccccc6)C(=O)C(C)(C)[C@@H]5CC[C@]43C)[C@@H]2C1 landed at 47.7%

Reference source for all entries: ChEMBL document CHEMBL2413072
